target: DNA topoisomerase 1 (Homo sapiens); assay: In vitro activity against topoisomerase-1 mediated cleavage of supercoiled pBR322 plasmid DNA
Sequence (P11387 whole entry): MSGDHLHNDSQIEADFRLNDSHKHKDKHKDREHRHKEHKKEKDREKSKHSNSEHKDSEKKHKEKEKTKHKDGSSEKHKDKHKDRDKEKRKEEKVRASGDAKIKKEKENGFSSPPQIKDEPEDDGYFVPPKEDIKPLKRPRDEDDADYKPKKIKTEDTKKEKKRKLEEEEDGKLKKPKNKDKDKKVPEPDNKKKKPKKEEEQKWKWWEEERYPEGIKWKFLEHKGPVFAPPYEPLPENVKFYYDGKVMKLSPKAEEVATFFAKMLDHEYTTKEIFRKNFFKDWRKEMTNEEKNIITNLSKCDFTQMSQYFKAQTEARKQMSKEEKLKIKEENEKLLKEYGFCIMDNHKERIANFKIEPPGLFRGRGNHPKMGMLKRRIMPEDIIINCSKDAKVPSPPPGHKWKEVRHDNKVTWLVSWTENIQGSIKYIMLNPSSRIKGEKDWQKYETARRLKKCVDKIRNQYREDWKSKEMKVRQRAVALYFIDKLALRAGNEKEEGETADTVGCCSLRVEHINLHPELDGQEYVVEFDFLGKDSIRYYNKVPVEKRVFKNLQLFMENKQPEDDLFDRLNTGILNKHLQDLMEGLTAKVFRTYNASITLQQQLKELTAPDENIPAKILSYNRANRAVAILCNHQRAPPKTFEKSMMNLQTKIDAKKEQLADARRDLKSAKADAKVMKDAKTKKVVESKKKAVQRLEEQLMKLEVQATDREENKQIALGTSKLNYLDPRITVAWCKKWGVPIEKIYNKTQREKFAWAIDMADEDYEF
Listed next: entries and their corresponding pEC50.
Give only the number. pEC50 is defined as minus log10 of concentration in molar units.

NC(=O)NN1C(=O)c2c(c3c4cccc(O)c4n(C4OC(CO)C(O)C(O)C4O)c3c3[nH]c4c(O)cccc4c23)C1=O (centres undefined) ... 6.44
CN(C)CC(=O)NN1C(=O)c2c(c3c4cccc(O)c4n(C4OC(CO)C(O)C(O)C4O)c3c3[nH]c4c(O)cccc4c23)C1=O (centres undefined) ... 6.77
N#CCCNN1C(=O)c2c(c3c4cccc(O)c4n(C4OC(CO)C(O)C(O)C4O)c3c3[nH]c4c(O)cccc4c23)C1=O (centres undefined) ... 7.15

Next compound, please.
Query string: Read off the recorded pEC50 for O=C1c2c(c3c4cccc(O)c4n(C4OC(CO)C(O)C(O)C4O)c3c3[nH]c4c(O)cccc4c23)C(=O)N1NCc1cccc(O)c1 (centres undefined)
Result string: 6.52

====

pIC50: −log10 of the molar value.
These records show pIC50 for Protein kinase C alpha type (Homo sapiens, UniProt P17252).

A selection of reference data follows.
CCCNN1C(=O)c2c(c3c4cccc(O)c4n(C4OC(CO)C(O)C(O)C4O)c3c3[nH]c4c(O)cccc4c23)C1=O (stereo not given) ... 4.19
O=C1c2c(c3c4cccc(O)c4n(C4OC(CO)C(O)C(O)C4O)c3c3[nH]c4c(O)cccc4c23)C(=O)N1NC(CO)CO (stereo not given) ... < 3.70
O=C1c2c(c3c4cccc(O)c4n(C4OC(CO)C(O)C(O)C4O)c3c3[nH]c4c(O)cccc4c23)C(=O)N1NCCO (stereo not given) ... < 3.70
CN(C)CC(=O)NN1C(=O)c2c(c3c4cccc(O)c4n(C4OC(CO)C(O)C(O)C4O)c3c3[nH]c4c(O)cccc4c23)C1=O (stereo not given) ... < 3.70
CC(=O)NN1C(=O)c2c(c3c4cccc(O)c4n(C4OC(CO)C(O)C(O)C4O)c3c3[nH]c4c(O)cccc4c23)C1=O (stereo not given) ... 3.89
O=C(Nc1ccccc1)NN1C(=O)c2c(c3c4cccc(O)c4n(C4OC(CO)C(O)C(O)C4O)c3c3[nH]c4c(O)cccc4c23)C1=O (stereo not given) ... 5.17

Query string: Read off the recorded pIC50 for O=C1c2c(c3c4cccc(O)c4n(C4OC(CO)C(O)C(O)C4O)c3c3[nH]c4c(O)cccc4c23)C(=O)N1NCC(O)CO (stereo not given)
Result string: < 3.70

Query string: Read off the recorded pIC50 for CCNN1C(=O)c2c(c3c4cccc(O)c4n(C4OC(CO)C(O)C(O)C4O)c3c3[nH]c4c(O)cccc4c23)C1=O (stereo not given)
Result string: < 3.70

Query string: Read off the recorded pIC50 for NN1C(=O)c2c(c3c4cccc(O)c4n(C4OC(CO)C(O)C(O)C4O)c3c3[nH]c4c(O)cccc4c23)C1=O (stereo not given)
Result string: < 3.70

Query string: Read off the recorded pIC50 for O=C1c2c(c3c4cccc(O)c4n(C4OC(CO)C(O)C(O)C4O)c3c3[nH]c4c(O)cccc4c23)C(=O)N1NCc1cccc(O)c1 (stereo not given)
Result string: 4.89

Query string: Read off the recorded pIC50 for O=C(CO)NN1C(=O)c2c(c3c4cccc(O)c4n(C4OC(CO)C(O)C(O)C4O)c3c3[nH]c4c(O)cccc4c23)C1=O (stereo not given)
Result string: < 3.70

Query string: Read off the recorded pIC50 for O=CNN1C(=O)c2c(c3c4cccc(O)c4n(C4OC(CO)C(O)C(O)C4O)c3c3[nH]c4c(O)cccc4c23)C1=O (stereo not given)
Result string: < 3.70

Query string: Read off the recorded pIC50 for N#CCCNN1C(=O)c2c(c3c4cccc(O)c4n(C4OC(CO)C(O)C(O)C4O)c3c3[nH]c4c(O)cccc4c23)C1=O (stereo not given)
Result string: < 3.70

Query string: Read off the recorded pIC50 for NC(=O)NN1C(=O)c2c(c3c4cccc(O)c4n(C4OC(CO)C(O)C(O)C4O)c3c3[nH]c4c(O)cccc4c23)C1=O (stereo not given)
Result string: < 3.70

Query string: Read off the recorded pIC50 for O=C(O)c1ccc(NN2C(=O)c3c(c4c5cccc(O)c5n(C5OC(CO)C(O)C(O)C5O)c4c4[nH]c5c(O)cccc5c34)C2=O)cc1 (stereo not given)
Result string: 4.64
